Test: qHTS assay to identify small molecule antagonists of the vitamin D receptor (VDR) signaling pathway - cell viability counter screen (AID 743225); also: nearly all actives have a fitted effect of over 50% in size
Conditions: VDR-bla HEK293T viability, CellTiter-Glo luminescence, 16 h; series mostly up to 61 µM
Results filed as inconclusive are left out. Active and inactive are the calls of the source. Calls follow the shape of the dose curve; as a rule, active = well fitted cell-killing curve with a large enough effect in the repeat runs; inconclusive = weak or mixed curves, or effect the other way; inactive = no such curve, though single readings can be large or run the other way.
Hi! Could you answer with just one of these? yes (1) (active), no (0) (inactive)

Solved cases (5 shown):
molecule: CCCCCCCC/C=C\CCCCCCCCOCCO
cat: yes (1)

molecule: CCOc1nc2cccc(C(=O)OC(C)OC(=O)OC3CCCCC3)c2n1Cc1ccc(-c2ccccc2-c2nn[nH]n2)cc1 (configuration not stated)
cat: yes (1)

molecule: CN1CCN(CCC(=O)N2c3ccccc3Sc3ccc(C(F)(F)F)cc32)CC1
cat: yes (1)

molecule: CCCCCCCCOC(=O)c1ccc(O)cc1
cat: yes (1)

molecule: CCN(C(=O)N(CC)c1ccccc1)c1ccccc1
cat: no (0)

What classification did `CSc1ccc(/C=C2/C(C)=C(CC(=O)O)c3cc(F)ccc32)cc1` end up with in this test?
no (0)

Outcome? `CCCCCCCCCCCCCCCC[N+](C)(C)CCN(Cc1ccc(OC)cc1)c1ncccn1`
yes (1)

Test call, this molecule: `Cc1c(C)c2c(c(C)c1OC(=O)CCC(=O)O)CC[C@@](C)(CCC[C@H](C)CCC[C@H](C)CCCC(C)C)O2`
no (0)

Check the results log: what was the call for `Oc1ccc(Cl)cc1Sc1cc(Cl)ccc1O` ?
yes (1)

###

Molecular target: Cytochrome P450 2D6 (Homo sapiens) (UniProt P10635)
Sequence (P10635 whole entry, looked up): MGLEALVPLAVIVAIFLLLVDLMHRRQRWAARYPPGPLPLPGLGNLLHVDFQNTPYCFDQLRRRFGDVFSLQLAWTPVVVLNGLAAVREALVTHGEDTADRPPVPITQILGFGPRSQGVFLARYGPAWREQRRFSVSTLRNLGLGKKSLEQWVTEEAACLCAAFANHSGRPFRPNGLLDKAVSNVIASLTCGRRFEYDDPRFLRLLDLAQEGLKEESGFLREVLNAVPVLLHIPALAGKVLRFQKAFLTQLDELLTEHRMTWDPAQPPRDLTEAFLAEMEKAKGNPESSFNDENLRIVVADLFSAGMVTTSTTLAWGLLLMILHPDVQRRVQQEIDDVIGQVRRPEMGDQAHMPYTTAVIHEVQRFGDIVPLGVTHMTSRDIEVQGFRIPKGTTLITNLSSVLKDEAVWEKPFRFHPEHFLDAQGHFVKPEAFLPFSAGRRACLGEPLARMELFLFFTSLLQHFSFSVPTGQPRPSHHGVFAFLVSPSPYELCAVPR
Test: Cytochrome P450 Family 2 Subfamily D Member 6 (CYP2D6) small molecule antagonists: luciferase reporter qHTS assay (AID 1671196); also: nearly all actives have a fitted effect of over 50% in size
Details: P450-Glo CYP2D6 enzyme assay, luciferin luminescence, 1 h; series mostly up to 115 µM
Results filed as inconclusive are left out. The source made the active and inactive calls. Calls follow the shape of the dose curve; as a rule, active = well fitted inhibition curve with a large enough effect in the repeat runs; inconclusive = weak or mixed curves; inactive = no such curve, though single readings can be large or run the other way.
Write down the outcome that applies. Available outcomes: 1 (active), -1 (inactive)

Examples with answers:
compound: O=C1CCCc2c1cc1ccc3cccc4ccc2c1c34
test target: Cytochrome P450 2D6 (Homo sapiens) (UniProt P10635)
cat: -1

compound: O=C(O)c1ccc(Cl)c(Cl)c1
test target: Cytochrome P450 2D6 (Homo sapiens) (UniProt P10635)
cat: -1

compound: Cc1ccc2oc(CN(Cc3ccccc3)C(=O)Nc3c(F)cc(F)cc3F)c(-c3ccc(Cl)cc3)c2c1
test target: Cytochrome P450 2D6 (Homo sapiens) (UniProt P10635)
cat: 1

compound: CC1=NC(C)OC1C (stereo unspecified)
test target: Cytochrome P450 2D6 (Homo sapiens) (UniProt P10635)
cat: 1

Assay outcome for `C[C@]12CCC(=O)C=C1CC[C@@H]1[C@@H]2[C@@H](O)C[C@@]2(C)[C@H]1CC[C@]2(O)C(=O)COC(=O)CCC(=O)O` : what was it?
-1

Please let me know the test result on file for `CCCC(c1cc(C(C)(C)C)c(O)cc1C)c1cc(C(C)(C)C)c(O)cc1C` .
1

Status in this test for `O=C1CCCCCN1SSN1CCCCCC1=O` ?
-1

Please indicate how the test categorized CCC(C)Nc1ccc(NC(C)CC)cc1 (stereo unspecified) .
1

Could you please tell me the result logged for `Cc1cccc2c1cc1ccc3cccc4ccc2c1c34` in this assay?
-1

How did this test come out for `CN(C)[C@@H]1C(=O)C(C(N)=O)=C(O)[C@@]2(O)C(=O)C3=C(O)c4c(O)cccc4C[C@H]3C[C@@H]12` ?
-1

Entry `CCCCCCCCCCCCCCCC(=O)OC[C@H](O)[C@H]1OC(=O)C(O)=C1O` : call = ?
-1
